Each recorded value in this set is attributed to PubChem BioAssay AID2060890.

system: LG0703-F948-PDC complex spheroid viability; test: Anticancer human tumor LG0703-F948-PDC patient-derived lung adenocarcinoma cell line growth inhibition [RAS]; conditions: second compound 0.1 µM; first compound 0.1 µM; stronger effect = lower value;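 further: spheroids exposed to agents for 7 days; 100% = DMSO vehicle wells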
property.name: viability, T/C

* O=C(c1ccc(F)c(F)c1Nc1ccc(I)cc1F)N1CC(O)([C@@H]2CCCCN2)C1 + C=CC(=O)N1CCN(c2nc(OCC3CCCN3C)nc3c(F)c(-c4nc(N)cc(C)c4C(F)(F)F)c(Cl)cc23)C(C)C1 | 27.9%
* CC1(O)CCCC1n1c(=O)c(C(F)F)cc2cnc(NC3CCN(S(C)(=O)=O)CC3)nc21 (centres undefined) + C=CC(=O)N1CCN(c2nc(OCC3CCCN3C)nc3c(F)c(-c4nc(N)cc(C)c4C(F)(F)F)c(Cl)cc23)C(C)C1 | 104%
* NC1c2ccccc2OC12CCN(c1cnc3c(N4CCCc5ncccc54)n[nH]c3n1)CC2 (centres undefined) + C=CC(=O)N1CCN(c2nc(OCC3CCCN3C)nc3c(F)c(-c4nc(N)cc(C)c4C(F)(F)F)c(Cl)cc23)C(C)C1 | 35.2%
* CC(=O)OC12COC1CC(O)C1(C)C(=O)C(O)C3=C(C)C(OC(=O)C(O)C(NC(=O)OC(C)(C)C)c4ccccc4)CC(O)(C(OC(=O)c4ccccc4)C21)C3(C)C (centres undefined) + C#Cc1c(F)ccc2cc(O)cc(-c3ncc4c(N5CC6CCC(C5)N6)nc(OCC56CCCN5CC(F)C6)nc4c3F)c12 | 27.3%
